# tested_system: T1, HIS-tagged B Lymphocyte Stimulator (human, UniProt Q9Y275 71-285)
# T1 construct: Expressed in E. coli; also called HIS-B Lymphocyte Stimulator; histidine-tagged B Lymphocyte Stimulator; not shown: histidine tag from the pQE9 vector
# T1 sequence (Q9Y275 71-285): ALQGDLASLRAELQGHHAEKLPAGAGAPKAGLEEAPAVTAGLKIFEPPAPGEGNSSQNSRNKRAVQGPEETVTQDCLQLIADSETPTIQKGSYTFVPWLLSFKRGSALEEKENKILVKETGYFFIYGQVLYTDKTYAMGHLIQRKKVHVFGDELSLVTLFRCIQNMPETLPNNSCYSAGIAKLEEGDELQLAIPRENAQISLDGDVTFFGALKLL
# assay: BIAcore, purified scFv over low density HIS-BLyS surface
The entries below are paired with their reported Kd.
outcome_measure: Kd (nM)

INSERT INTO results (binder, observed) VALUES
  ('I082H08 (scFv) scFv: EVQLVESGGGLVQPGGSLRLSCAASGFTFSDYGMHWVRQRPGKGLEWIAFIGSDGSNKYYGDTVKGRFTISRDNAKNSLYLQMNSLRAEGTAVYYCARDWDMDVWGQGTMVTVSSGGGGSGGGGSGGGGSSHVILTQPRSVSGSPGQSVTISCTGTSSDVGGYHYVSWYQQHPGKAPRLMIYEVTKRPSGVSNRFSGSKSGNTASLTISGVQAEDEADYYCSSYTSASTVIFGGGTKLTVLG', 1),
  ('I082G02 (scFv) scFv: KVQLVESGGGVVQPGRSLRLSCVTSGFTFSSYGMHWVRQAPGKGLEWVAGISYDGAKEYYGDPVKGRFTISRDNTKKTLNLQMNSLRAEDTAVYYCARDGYRTNDALDIWGQGTLATVSSGGGGSGGGGSGGGGSDIQMTQSPSTLSASIGDRVTITCRASEGIYHWLAWYQQKPGKAPKLLIYKASSLASGAPSRFSGSGSGTDFTLTISSLQPDDFATYYCQQYSNYPLTFGGGTKLEIKR', 6),
  ('I079E02 (scFv) scFv: QVQLVQSGAEVKKPGSSVKVSCKASGGTFSSYAISWVRQAPGQGLEWMGGIIPIFGTANYAQKFQGRVTITADKSTSTAYMELSSLRSDDTAVYYCARDSGSYYYDAFDIWGKGTMVTVSSGGGGSGGGGSGGGGSDIVMTQSPSTLSASVGDRVTITCRASQGISSWLAWYQQKPGKAPKLLIYAASSLQSGVPSRFSGSGSGTDFTLTISSLQPEDFATYYCQQANSFPLTFGGGTKVEIKR', 10),
  ('I099D03 (scFv) scFv: QVQLVQSGAEVKKPGASVRVSCKSSGYTFTNYGISWVRQAPGQGLEWMGWISNNNGKTYYAQKVQGRVTMTTDTSTSTDYMELRGLRSDDTAIYYCARDNGGGTIGFDYWGRGTLVTVSSGGGGSGGGGSGGGGSAQAVLTQPSSVSGAPGQRVTMSCTGSSSNIGAGYDVHWYQQLPGTAPKLLIYDNTNRPSGVPDRFSGSRSGTSASLAITGLQAEDEADYFCQSYDITLSAVFGTGTKVTVLG', 4);

The values you see were collected from patent US20110293610A1.
